test-system: Ectonucleotide pyrophosphatase/phosphodiesterase family member 1 (Homo sapiens)
Sequence (P22413 whole entry): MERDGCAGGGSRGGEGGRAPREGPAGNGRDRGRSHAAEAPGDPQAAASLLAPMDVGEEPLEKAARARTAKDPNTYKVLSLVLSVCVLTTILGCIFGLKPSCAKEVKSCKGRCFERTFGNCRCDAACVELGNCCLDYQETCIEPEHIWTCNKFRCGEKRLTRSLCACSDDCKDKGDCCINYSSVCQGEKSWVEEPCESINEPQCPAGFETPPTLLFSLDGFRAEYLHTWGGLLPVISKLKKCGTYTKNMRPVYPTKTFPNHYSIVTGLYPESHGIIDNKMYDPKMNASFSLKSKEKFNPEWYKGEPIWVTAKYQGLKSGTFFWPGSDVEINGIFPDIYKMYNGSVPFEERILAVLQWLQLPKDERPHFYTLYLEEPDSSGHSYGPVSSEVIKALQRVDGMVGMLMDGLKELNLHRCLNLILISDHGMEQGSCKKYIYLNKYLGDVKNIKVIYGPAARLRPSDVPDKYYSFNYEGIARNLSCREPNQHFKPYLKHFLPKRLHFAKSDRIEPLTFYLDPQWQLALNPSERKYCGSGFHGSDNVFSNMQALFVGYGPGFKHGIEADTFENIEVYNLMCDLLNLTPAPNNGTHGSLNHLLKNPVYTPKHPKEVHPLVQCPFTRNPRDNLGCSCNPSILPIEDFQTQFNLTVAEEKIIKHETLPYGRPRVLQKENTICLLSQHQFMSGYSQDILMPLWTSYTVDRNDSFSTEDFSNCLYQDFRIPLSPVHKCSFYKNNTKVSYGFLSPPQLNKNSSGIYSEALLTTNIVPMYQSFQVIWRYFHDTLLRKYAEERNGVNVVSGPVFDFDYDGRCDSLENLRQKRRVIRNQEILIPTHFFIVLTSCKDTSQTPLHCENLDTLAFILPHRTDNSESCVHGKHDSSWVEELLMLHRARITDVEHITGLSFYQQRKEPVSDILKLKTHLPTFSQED
experiment-description: Inhibition of ENPP1 (unknown origin) using TMP-pNP as substrate preincubated for 10 mins followed by substrate addition and measured immediately under pH 8.8 by absorbance based multimode plate reader analysis
quantity: IC50

Req: Fill blank: measured IC50 of the compound `NC(=O)c1ccc2c(ncn2Cc2ccc(B(O)O)cc2)n1` is ____.
Resp: < 10 nM
